Source listed as patent US11479587B2.

# assay: Cytotoxicity (resazurin) assay
# Procedure: For the cytotoxicity (resazurin) assay, HEK293 cells were counted manually in a Neubauer haemocytometer and plated at a density of 4000 cells/well into each well of the 384-well plates containing the 25×(2 μl) concentrated compounds. The medium used was Dulbecco's modified eagle medium (DMEM) supplemented with 10% foetal bovine serum (FBS). […] After final incubation fluorescence intensity was measured as F ex 560/10 nm, em 590/10 nm (F560/590) using a Tecan M1000 Pro monochromator plate reader. […]
Residues, ends and D or L forms follow the SMILES beside them. *: point of attachment. Palmitoyl = CCCCCCCCCCCCCCCC(=O)*
recordedEndpoint: CC50

Here is how some compounds turned out for CC50.
CCCCCCCCCCCCCCCC(=O)SC[C@H](NC(=O)[C@H](CCCNC(=N)N)NC(=O)CNC(=O)[C@H](CCCNC(=N)N)NC(=O)CNC(=O)[C@H](CCCNC(=N)N)NC(=O)CNC(=O)CNC(=O)[C@H](CCCNC(=N)N)NC(=O)CNC(=O)CNC(=O)[C@H](CCCNC(=N)N)NC(=O)[C@H](CCCNC(=N)N)NC(=O)CN)C(N)=O [C-Pal-GR13] (H-GRRGGRGGRGRGRC(Palmitoyl)-NH2) | > 32 µg/mL
CCCCCCCCCCCCCCCC(=O)NCC(=O)N[C@@H](CCN)C(=O)NCC(=O)N[C@@H](CCN)C(=O)O [Pal-GDab4, Pal-GDabGDab] (HELM PEPTIDE1{[CCCCCCCCCCCCCCCC(=O)[*:2]].G.[Dab].G.[Dab]}$$$$V2.0) | 32 µg/mL

Q: Given the compound CCCCCCCCCCCCCCCC(=O)NCC(=O)N[C@@H](CCCCN)C(=O)N[C@@H](CCCCN)C(=O)NCC(=O)NCC(=O)N[C@@H](CCCCN)C(=O)NCC(=O)NCC(=O)N[C@@H](CCCCN)C(=O)NCC(=O)N[C@@H](CCCCN)C(=O)NCC(=O)N[C@@H](CCCCN)C(=O)O [Pal-K-GR13] (HELM PEPTIDE1{[CCCCCCCCCCCCCCCC(=O)[*:2]].G.K.K.G.G.K.G.G.K.G.K.G.K}$$$$V2.0) , what is its reported CC50?
Ans: > 32 µg/mL

###

# assay: Cytotoxicity (resazurin) assay
Non-standard residues stand in square brackets, D forms with d. Residues, ends and D or L forms follow the SMILES beside them. *: point of attachment. Palmitoyl = CCCCCCCCCCCCCCCC(=O)*; dOrn = NCCC[C@@H](N)C(=O)O
recordedEndpoint: CC50

Here is how some compounds turned out for CC50.
CCCCCCCCCCCCCCCC(=O)NCC(=O)N[C@H](CCCNC(=N)N)C(=O)N[C@H](CCCNC(=N)N)C(=O)NCC(=O)NCC(=O)N[C@H](CCCNC(=N)N)C(=O)NCC(=O)NCC(=O)N[C@H](CCCNC(=N)N)C(=O)O [D-Pal-GR9] (HELM PEPTIDE1{[CCCCCCCCCCCCCCCC(=O)[*:2]].G.[dR].[dR].G.G.[dR].G.G.[dR]}$$$$V2.0) | > 32 µg/mL
CCCCCCCCCCCCCCCC(=O)NCC(=O)N[C@H](CCCN)C(=O)NCC(=O)N[C@H](CCCN)C(=O)O [D-Pal-GOrn4, D-Pal-GODGOD] (Palmitoyl-G[dOrn]G[dOrn]-OH) | > 32 µg/mL
CCCCCCCCCCCCCCCC(=O)NCC(=O)N[C@@H](CCCCN)C(=O)NCC(=O)N[C@@H](CCCCN)C(=O)O [Pal-GK4, Pal-GKGK] (HELM PEPTIDE1{[CCCCCCCCCCCCCCCC(=O)[*:2]].G.K.G.K}$$$$V2.0) | > 32 µg/mL
CCCCCCCCCCCCCCCC(=O)NCC(=O)N[C@@H](CCCNC(=N)N)C(=O)N[C@@H](CCCNC(=N)N)C(=O)NCC(=O)NCC(=O)N[C@@H](CCCNC(=N)N)C(=O)O [Pal-GR6, Pal-GRRGGR] (HELM PEPTIDE1{[CCCCCCCCCCCCCCCC(=O)[*:2]].G.R.R.G.G.R}$$$$V2.0) | > 32 µg/mL
CCCCCCCCCCCCCCCC(=O)NCC(=O)N[C@@H](CCCNC(=N)N)C(=O)N[C@@H](CCCNC(=N)N)C(=O)NCC(=O)NCC(=O)N[C@@H](CCCNC(=N)N)C(=O)NCC(=O)NCC(=O)N[C@@H](CCCNC(=N)N)C(=O)NCC(=O)N[C@@H](CCCNC(=N)N)C(=O)O [Pal-GR11] (HELM PEPTIDE1{[CCCCCCCCCCCCCCCC(=O)[*:2]].G.R.R.G.G.R.G.G.R.G.R}$$$$V2.0) | > 32 µg/mL

Q: Given the compound CCCCCCCCCCCCCCCC(=O)N[C@@H](CCCNC(=N)N)C(=O)NCC(=O)N[C@@H](CO)C(=O)N[C@@H](CCCNC(=N)N)C(=O)N[C@@H](CO)C(=O)NCC(=O)N[C@@H](CCC(N)=O)C(=O)N[C@@H](CO)C(=O)N[C@@H](CO)C(=O)N[C@@H](CCCNC(=N)N)C(=O)NCC(=O)N[C@@H](CCC(=O)O)C(=O)N[C@@H](CCCNC(=N)N)C(=O)N[C@@H](CCCNC(=N)N)C(=O)O [Pal-HR 1-11 2H2R-14] (HELM PEPTIDE1{[CCCCCCCCCCCCCCCC(=O)[*:2]].R.G.S.R.S.G.Q.S.S.R.G.E.R.R}$$$$V2.0) , what is its reported CC50?
Ans: > 32 µg/mL

Q: How about CCCCCCCCCCCCCCCC(=O)NCC(=O)N[C@@H](CCCNC(=N)N)C(=O)NCC(=O)N[C@@H](CCCNC(=N)N)C(=O)O [Pal-GR4, Pal-GRGR] (HELM PEPTIDE1{[CCCCCCCCCCCCCCCC(=O)[*:2]].G.R.G.R}$$$$V2.0) ?
Ans: > 32 µg/mL

###

# assay: Hemolysis assay
# Type: cell-based
# protocolConditions: human, washed erythrocytes from EDTA-blood, pH 7.4
No end group written: not given here.
recordedEndpoint: HC50 at 1 h

GRHGSGLGHSSSHGQHGSGSGR [HR 1-18] | > 143 µM
GRRGGRGGRGRGR [GR13] | > 220 µM
HAHSGHGQSTQRGSRTAGR [FLG-22082-2100] | > 121 µM

Now look at this one.
Q: Given the sequence GRRGSGLGRSSSRGGRGSGSGR [HR 1-18 4H-4R] , what is its reported HC50 at 1 h?
Ans: > 150 µM

###

# System: P. aeruginosa ATCC 10145
# assay: CFU-assay, P. aeruginosa-cidal activity
# Format: cell-based, Pseudomonas aeruginosa
# protocolConditions: pH 5.0, 0.25% glucose
Primed or numbered codes have the meaning given here. No end group written: not given here. FITC′ = fluorescein isothiocyanate
recordedEndpoint: MBC100

Here is how some substances turned out for MBC100.
RGSGSGHQGHSSSHGLGSGHRG (Peptide with reverse sequence to 18 amino acid peptide derived from human hornerin (revHR 1-18)) | 0.075 µg/mL
FITC-GRHGSGLGHSSSHGQHGSGSGR ({FITC′}-GRHGSGLGHSSSHGQHGSGSGR) [FITC-HR 1-18] | 1.18 µg/mL
GRHGSGLGHSSSHGQHGSGSGRSSSGGPY (Modified peptide derived from human hornerin (HR 1-17 R2681G)) | 0.15 to 0.3 µg/mL
GRHGSGGGHSSSHGGHGSGSGR (Modified peptide derived from human hornerin (HR 1-18 L-G/Q-G)) | 0.15 µg/mL

Q: Given the substance GRHGSGLGHSSSHGQHGSGSGGSSSRGPY (Modified peptide derived from human hornerin (HR 1-17 R2677G)) , what is its reported MBC100?
Ans: 0.15 µg/mL

Q: How about GRRGSGGGRSSSRGGRGSGSGR (Modified peptide derived from human hornerin (HR 1-18 4H-4R/L-G)) ?
Ans: 0.15 µg/mL

###

# Tested on: C. neoformans
Residues, ends and D or L forms follow the SMILES beside them.
recordedEndpoint: MIC, C. neoformans ATCC 208821

CCCCCCCCCCCCCCCC(=O)NCC(=O)N[C@H](CCCNC(=N)N)C(=O)N[C@H](CCCNC(=N)N)C(=O)NCC(=O)NCC(=O)N[C@H](CCCNC(=N)N)C(=O)NCC(=O)NCC(=O)N[C@H](CCCNC(=N)N)C(=O)NCC(=O)N[C@H](CCCNC(=N)N)C(=O)NCC(=O)N[C@H](CCCNC(=N)N)C(=O)O [D-Pal-GR13] (HELM PEPTIDE1{[CCCCCCCCCCCCCCCC(=O)[*:2]].G.[dR].[dR].G.G.[dR].G.G.[dR].G.[dR].G.[dR]}$$$$V2.0) | ≥2 µg/mL
CCCCCCCCCCCCCCCC(=O)NCC(=O)N[C@@H](CCCNC(=N)N)C(=O)NCC(=O)N[C@@H](CCCNC(=N)N)C(=O)O [Pal-GR4, Pal-GRGR] (HELM PEPTIDE1{[CCCCCCCCCCCCCCCC(=O)[*:2]].G.R.G.R}$$$$V2.0) | ≥8 µg/mL
CCCCCCCCCCCCCCCC(=O)N[C@@H](CO)C(=O)N[C@@H](Cc1c[nH]cn1)C(=O)N[C@@H](Cc1c[nH]cn1)C(=O)N[C@@H](CCCNC(=N)N)C(=O)N[C@@H](CS)C(=O)N[C@@H](CS)C(=O)N[C@@H](CCCNC(=N)N)C(=O)N[C@@H](CO)C(=O)N[C@@H](Cc1c[nH]cn1)C(=O)N[C@@H](CCCNC(=N)N)C(=O)N[C@@H](CS)C(=O)N[C@@H](CCCNC(=N)N)C(=O)N[C@@H](CCCNC(=N)N)C(=O)O [Pal-LCE3B56-68] (HELM PEPTIDE1{[CCCCCCCCCCCCCCCC(=O)[*:2]].S.H.H.R.C.C.R.S.H.R.C.R.R}$$$$V2.0) | ≥0.25 µg/mL

Now look at this one.
Q: Given the molecule CCCCCCCCCCCCCCCC(=O)NCC(=O)N[C@@H](CCN)C(=O)NCC(=O)N[C@@H](CCN)C(=O)O [Pal-GDab4, Pal-GDabGDab] (HELM PEPTIDE1{[CCCCCCCCCCCCCCCC(=O)[*:2]].G.[Dab].G.[Dab]}$$$$V2.0) , what is its reported MIC, C. neoformans ATCC 208821?
Ans: ≥16 µg/mL
